Experiment: physchem
Settings: 1-octanol/phosphate buffer, pH 7.4
measuredQuantity: logD at 2 h, 25 µM

INSERT INTO results (chemicalsmiles, measuredquantity, observedmeasurement) VALUES
  ('Nc1nnc(CN(Cc2ccc(O)nc2)C(=O)COc2cc(F)cc(F)c2C2CC2)o1', 'logD at 2 h, 25 µM', 2.2),
  ('CCc1ccccc1SCC(=O)N(Cc1ccc(C#N)cc1)Cc1nnc(N)o1', 'logD at 2 h, 25 µM', 2.5);

1 = [2H]C([2H])(Oc1cc(F)cc(F)c1C([2H])([2H])C([2H])([2H])[2H])C(=O)N(Cc1ccc(C#N)nc1)Cc1nnc(N)o1
2 = N#Cc1ccc(CN(Cc2nnc(N)o2)C(=O)CSc2ncccc2Cl)cn1
(Q) Of the two listed items, which has the higher logD at 2 h, 25 µM? First: 1 Second: 2 Return value: the label identifying the chosen record.
(A) 1
